system: SNB-19 CNS; experiment: NCI tumour cell line growth inhibition, 48 h
Readout Kind: TGI

- Compound: "CC#CC(=O)N1CCC[C@H]1c1nc(-c2ccc(C(=O)Nc3ccccn3)cc2)c2c(N)nccn12"
  TGI: "> 100 µM"
- Compound: "FC(F)(F)c1ccc(-c2cnc(Br)nc2NC2CCCCCC2)cc1"
  TGI: "> 100 µM"
- Compound: "COC(=O)C1=C(C)NC(C)=C([N+](=O)[O-])C1c1cccc(NO)c1 (stereo not given)"
  TGI: "> 100 µM"
- Compound: "O=C(/C=C/c1ccc(Cl)c(Cl)c1)Oc1ccc(/C=C2\\CCCCC2=O)cc1"
  TGI: "> 100 µM"

Note: attention shifts to another entry.
Record Cc1cn(C2CC(N=[N+]=[N-])C(CO[Si](C)(C)C(C)(C)C)O2)c(=O)[nH]c1=O (stereo not given) ; system SNB-19 CNS; TGI = 38.3 µM

====

test system: DMS 273 small cell lung; assay: NCI tumour cell line growth inhibition, 48 h
Collected TGI values appear next to each entry.

The cases that follow already have their TGI on record.
- Compound: "C=C1C(C)C2C(Cc3ccccc3)NC(=O)C23C(OC(C)=O)/C=C/C(C)(O)CC(C)C/C=C/C3C1O (stereo not given)"
  TGI: "> 82 µM"
- Compound: "COc1ccc2c(c1)CC[C@@H]1C2CC[C@]2(C)C(=O)NC(=O)CC12 (stereo not given in full)"
  TGI: "> 100 µM"
- Compound: "COc1cc([C@H]2Oc3c(c(O)cc4oc(-c5ccccc5)cc(=O)c34)O[C@@H]2CO)ccc1O"
  TGI: "25 µM"
- Compound: "COc1ccc(O)c2c1C(=O)CCCC2=O"
  TGI: "> 100 µM"
- Compound: "COc1cc2c(cc1C)n(O)c(C)c(C(=O)C/C(=N/NC(=O)C[N+](C)(C)C)C(=O)Nc1cccc(Cl)c1C)[n+]2=O"
  TGI: "> 100 µM"

What the record says about CCOC(=O)C(C)(C)Oc1ccc2c(-c3ccc(Cl)cc3)cc(=O)oc2c1 : TGI is > 100 µM

====

system: MALME-3M melanoma; test: NCI tumour cell line growth inhibition, 48 h
Recorded TGI values for a group of molecules are listed next.
# value in µM; strip the unit string

- Smiles Input: "Fc1ccc(-c2ncn(C3CCNCC3)c2-c2ccnc(Oc3cccc(F)c3)n2)cc1"
  Measurement Unit: "µM"
  Val: 16.8

Now, please, on to the next molecule.
The molecule O=C(NNS(=O)(=O)c1cc(C(F)(F)F)cc(C(F)(F)F)c1)c1cnn(-c2ccc(Cl)cc2)c1C(F)(F)F , tested on MALME-3M melanoma, showed TGI of 34.3

====

test system: T-47D breast; experiment: NCI tumour cell line growth inhibition, 48 h; in the data active means GI50 below about 0.43 µM; inactive means the rest
Your answer must be one of the following: active, inactive

- Compound: "C=C(C)C1/C=C(/C(C)C)CC[C@]2(C)O[C@@H]2CC[C@H](C)CC1=O (stereo partly drawn)"
  Assigned Class: "inactive"
- Compound: "COC(=O)CCC1=C(C)c2cc3[n-]c(cc4nc(cc5[n-]c(cc1n2)c(CCC(=O)OC)c5C)C=C4C)cc3C.[Cd+2]"
  Assigned Class: "inactive"
- Compound: "CC(=O)N1CC(F)(F)c2c(Sc3ncc(N4CCC5(CC4)COC[C@H]5N)nc3N)cccc21"
  Assigned Class: "inactive"
- Compound: "CCS/C(Nc1ccccc1)=C(\\C#N)C(=O)Nc1ccc(OC)cc1"
  Assigned Class: "inactive"
- Compound: "NC(CSC(c1ccccc1)(c1ccccc1)c1ccc2ccccc2c1)C(=O)O (stereo not drawn)"
  Assigned Class: "active"

Lab log entry: COc1ccc(C(O)c2cc3c(N)c(C(=O)Nc4cccc(Br)c4)sc3nc2C)cc1 (stereo not drawn) — outcome as called in the assay?
inactive

Dear colleague, could you share the recorded outcome for CN(C)c1ccc(/C=C/c2ccnc3ccccc23)cc1 when you have a moment?
inactive

Recorded test call requested for O=C(/C=C\c1ccnc2ccccc12)c1ccc([N+](=O)[O-])cc1
inactive

What did the test return for COc1ccc(/C=C2\COc3ccc(-c4ccccc4)cc3C2=O)cc1O ?
inactive

Please let me know the test result on file for COc1ccc2c3c(c(OCCCN(C)C)nc2c1)-c1ccc(Cl)cc1C3=O .
inactive

In this assay, the call recorded for O=C1/C(=C/c2cccs2)CCC/C1=C\c1cccs1 was what?
inactive

Hey, what did the test say about Cn1ccnc1C(=O)/C=C/c1ccc(C(=O)Nc2nc3ccccc3[nH]2)cc1 ?
inactive

Recorded call for COc1ccccc1-n1c(SCc2cc(OC)c(OC)c(OC)c2)nc2ccc(Cl)cc2c1=O ?
inactive

====

tested on: SF-539 CNS; experiment: NCI tumour cell line growth inhibition, 48 h
Each entry gets NO if its TGI stays under 3 µM, and YES if its TGI is 3 µM or above.

- Compound: "Cc1cn(C2CC(N=[N+]=[N-])C(CO[Si](C)(C)C(C)(C)C)O2)c(=O)[nH]c1=O (configuration not stated)"
  System Under Test: "SF-539 CNS"
  Assigned Class: "YES"

Dear colleague, could you confirm whether O=C1c2cc(CCl)sc2C(=O)c2ccsc21 has TGI at or above 3 µM?
NO

Hello, I need to know if CCOC(=O)c1nc2cc(C(F)(F)F)ccc2nc1Nc1ccc(Cl)c(Cl)c1 has measured TGI not below 3 µM. Thanks!
YES

Kindly determine if TGI recorded for COc1ccc2c3c(c(OCCCN(C)C)nc2c1)-c1ccc(Cl)cc1C3=O is above or exactly 3 µM.
YES

Is the recorded value of TGI equal to or greater than 3 µM for this compound? Clc1nc2c(-c3cccs3)ncnc2n1Cc1ccccc1
YES

Is reported TGI greater than or equal to 3 µM here: CC(C)(C)OC(=O)N1N=NC2C3CC(=O)C(O3)C21 (configuration not stated)
YES

Please tell me: is the compound O=C(/C=C/c1ccco1)Nc1ncc(Cc2ccc(F)cc2)s1 at or over 3 µM in terms of TGI?
NO

====

tested on: DMS 273 small cell lung; assay: NCI tumour cell line growth inhibition, 48 h
Each record here notes measured TGI.
# number only, unit µM dropped from output

Worked set:
- Compound: "COc1cc2c(cc1OC)C(Cl)C(c1cc(OC)c(OC)c(OC)c1)=C2Cl (configuration not stated)"
  System Under Test: "DMS 273 small cell lung"
  Readout Kind: "TGI"
  Val: 34.6
- Compound: "O=c1[nH]c(=S)[nH]c(O)c1/C=C1\\C=CC=N1"
  System Under Test: "DMS 273 small cell lung"
  Readout Kind: "TGI"
  Val: 25.3

Response field TGI (DMS 273 small cell lung) for item CCN(CC)CCCNC(=O)Cc1ccccc1Nc1c(Cl)cccc1Cl : 28.1

====

system: RPMI-8226 leukemia; assay: NCI tumour cell line growth inhibition, 48 h
Readout Kind: TGI

Some entries whose results are on file:
- Compound: "O=C(O)c1ccccc1/C=N\\NC1=NCCN1"
  Readout Kind: "TGI"
  Val: "> 100 µM"
- Compound: "COc1ccc(C2S/C(=C\\c3ccc(OC)cc3OC)C(=O)N2NC(=O)Cc2ccccc2)cc1 (stereo not given)"
  Readout Kind: "TGI"
  Val: "> 100 µM"
- Compound: "O=C(NC(Nc1ccc(F)c(Cl)c1)(C(F)(F)F)C(F)(F)F)C(C(F)(F)F)C(F)(F)F"
  Readout Kind: "TGI"
  Val: "66.8 µM"
- Compound: "COc1ccc2c(c1)CC[C@@H]1C2CC[C@]2(C)C(=O)NC(=O)CC12 (stereo not given in full)"
  Readout Kind: "TGI"
  Val: "> 100 µM"
- Compound: "Cc1cc2c(-c3ccccc3)cc(=O)[nH]c2cc1N"
  Readout Kind: "TGI"
  Val: "> 100 µM"
- Compound: "CC(C)[Si]1(C(C)C)OCC2OC(n3ccc(=O)[nH]c3=O)C(O)(CO)C2O[Si](C(C)C)(C(C)C)O1 (stereo not given)"
  Readout Kind: "TGI"
  Val: "26.2 µM"
- Compound: "O/N=C\\c1cc(O)c(O)c(/C=N/O)c1"
  Readout Kind: "TGI"
  Val: "> 100 µM"
- Compound: "COc1ccc(/C=C2\\COc3ccc(-c4ccccc4)cc3C2=O)cc1O"
  Readout Kind: "TGI"
  Val: "> 100 µM"

Summary for this compound, CCC1(OC(C)=O)C(=O)OCc2c1cc1n(c2=O)Cc2cc3ccccc3nc2-1 (stereo not given) : TGI is > 100 µM

Record CC(=O)Oc1c(OC(C)=O)c(-c2ccc(O)c(O)c2)c(O)c(O)c1-c1ccc(O)cc1 . Reported TGI: > 100 µM

Given item O=C(NNS(=O)(=O)c1cc(C(F)(F)F)cc(C(F)(F)F)c1)c1cnn(-c2ccc(Cl)cc2)c1C(F)(F)F , the value recorded as its TGI is 33.1 µM

# credit: PubChem BioAssay (NCI)
